As shown below, each of these compounds has a reported IC50 value.
- TEST_SYSTEM: FLuc-C-HiBiT (Photinus pyralis, UniProt P08659)
- Construct: firefly luciferase with C-terminal HiBiT tag, E. coli expressed
- Sequence (P08659 whole entry, looked up): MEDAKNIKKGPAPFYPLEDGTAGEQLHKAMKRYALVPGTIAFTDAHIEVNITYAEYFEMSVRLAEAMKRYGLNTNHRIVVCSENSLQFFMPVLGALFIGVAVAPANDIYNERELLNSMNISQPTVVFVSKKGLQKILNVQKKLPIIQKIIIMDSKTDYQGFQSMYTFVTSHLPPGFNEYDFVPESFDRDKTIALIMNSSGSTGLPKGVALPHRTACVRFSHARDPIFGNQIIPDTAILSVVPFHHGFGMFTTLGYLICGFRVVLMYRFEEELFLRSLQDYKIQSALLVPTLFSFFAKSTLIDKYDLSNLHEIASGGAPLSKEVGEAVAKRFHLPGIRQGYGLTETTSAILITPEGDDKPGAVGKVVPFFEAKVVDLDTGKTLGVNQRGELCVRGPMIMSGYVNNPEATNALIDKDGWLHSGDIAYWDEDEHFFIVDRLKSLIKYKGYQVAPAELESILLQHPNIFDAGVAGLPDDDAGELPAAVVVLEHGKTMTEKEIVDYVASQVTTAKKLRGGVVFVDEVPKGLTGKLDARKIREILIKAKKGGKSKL
- PROCEDURE_SUMMARY: biochemical
- CONDITION_INFO: enzyme activity, 10 uM ATP; read-out: IC50 or SDR50 (mM) / FLuc E
Report the value in mM with no unit label.

Solved cases (2 shown):
>  <COMPOUND>
CC1CCN(c2ncnc3c2cnn3-c2ccc(F)cc2)CC1

>  <MEASURE_UNIT>
mM

>  <IC50>
0.0111

$$$$
>  <COMPOUND>
Cc1cccc(NC(=O)c2c(N)sc3c2CCC(C)C3)c1 (centres unmarked)

>  <MEASURE_UNIT>
mM

>  <IC50>
0.00989

$$$$

Now, please, on to the next compound.
Which measured IC50 value corresponds to Cc1nc(C)c(C(=O)N2CCC(Oc3ccc(-c4noc(-c5ccccc5)n4)cc3)C2)s1 (centres unmarked) ?
0.0111
